System: 252836-082-R-J2-PDC tumor spheroids, viability;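 also: spheroids exposed to agents for seven days before readout; percent of vehicle DMSO control viability so 100% = untreated growth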
Test: Anticancer human tumor 252836-082-R-J2-PDC patient-derived head and neck squamous cell carcinoma cell line growth inhibition [PI3K]
Run parameters: second compound 0.0316 µM; first compound 0.01 µM; stronger effect = lower value; spheroids with HUVEC and MSC
Each entry below carries its recorded viability, T/C.
Value type: viability, T/C (%)

[[record]]
compound = "CCN1CCN(Cc2ccc(Nc3ncc(F)c(-c4cc(F)c5nc(C)n(C(C)C)c5c4)n3)nc2)CC1 + CC(Nc1ccc2c(c1)OCCn1cc(N3C(=O)OCC3C(F)F)nc1-2)C(N)=O"
target_entity = "252836-082-R-J2-PDC tumor spheroids, viability"
value_type = "viability, T/C"
uom = "%"
recorded_result = 79.6

[[record]]
compound = "CCN1CCN(Cc2ccc(Nc3ncc(F)c(-c4cc(F)c5nc(C)n(C(C)C)c5c4)n3)nc2)CC1 + COc1c(OCCCN2CCOCC2)ccc2c3n(c(=NC(=O)c4cnc(N)nc4)nc12)CCN3"
target_entity = "252836-082-R-J2-PDC tumor spheroids, viability"
value_type = "viability, T/C"
uom = "%"
recorded_result = 59

[[record]]
compound = "Cn1ncnc1[C@H]1c2n[nH]c(=O)c3cc(F)cc(c23)N[C@@H]1c1ccc(F)cc1 + CC(Nc1ncnc2nc[nH]c12)c1cc2cccc(Cl)c2c(=O)n1-c1ccccc1"
target_entity = "252836-082-R-J2-PDC tumor spheroids, viability"
value_type = "viability, T/C"
uom = "%"
recorded_result = 94.4

